- MEASURED_ON: T1, human gastric inhibitory peptide receptor (GIPR) (human, UniProt P48546 22-466)
- T1 sequence (looked up): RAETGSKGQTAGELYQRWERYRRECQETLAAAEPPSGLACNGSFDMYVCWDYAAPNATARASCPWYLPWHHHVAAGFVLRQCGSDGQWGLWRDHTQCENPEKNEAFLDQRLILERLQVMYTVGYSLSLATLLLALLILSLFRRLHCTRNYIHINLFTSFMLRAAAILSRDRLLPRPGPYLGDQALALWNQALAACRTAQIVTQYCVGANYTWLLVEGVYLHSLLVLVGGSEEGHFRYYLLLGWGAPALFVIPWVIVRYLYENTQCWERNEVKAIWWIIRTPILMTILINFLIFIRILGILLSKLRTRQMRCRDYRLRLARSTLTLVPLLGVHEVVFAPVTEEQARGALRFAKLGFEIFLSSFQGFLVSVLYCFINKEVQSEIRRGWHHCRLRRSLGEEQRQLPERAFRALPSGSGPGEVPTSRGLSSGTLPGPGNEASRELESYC
- TEST_NAME: cell-based or functional assay
Numbered stars: 1 amine (or outer) side, 2 acyl side, 3 side chain; on linkers, the order of the positions; unused ones are H or OH. Square brackets hold non-standard residues; d marks the D form. Side chains are listed from the residue outwards. Ends that are not written are not given here. * marks the point of attachment. C20 diacid = O=C(O)CCCCCCCCCCCCCCCCCCC(=O)*; γGlu = O=C(O)[C@H](CCC(=O)[*:2])N[*:1]; αMeF = C[C@](N)(Cc1ccccc1)C(=O)O; AEEA = NCCOCCOCC(=O)O; Aib = CC(C)(N)C(=O)O
Below, each entry is listed alongside its reported hGIPR cAMP EC50 ratio.
// return a plain number; no unit text

Below, 2 binders whose answers are already recorded.
YXEGTXTSDHSIXLDXKAQXTFIXYLIEGGPSSGAPPPS (Y-Aib-EGT-αMeF(2F)-TSDHSI-αMeF-LD-Dap-K((2-[2-(2-Amino-ethoxy)-ethoxy]-acetyl)2-(γ-Glu)-CO-(CH2)18-CO2H)AQ-Aib-TFI-(D-Glu)-YLIEGGPSSGAPPPS-NH2) [Example 173]	0.179
YXEGTXTSDYSIXLDEKAQXEFIXYLIEGGPSSGAPPPS (Y-Aib-EGT-αMeF(2F)-TSDYSI-Aib-LDEK((2-[2-(2-Amino-ethoxy)-ethoxy]-acetyl)2-(γ-Glu)-CO-(CH2)18-CO2H)AQ-Aib-EFI-(D-Glu)-YLIEGGPSSGAPPPS-NH2) [Example 224]	3.52

Now consider a different binder.
// query hGIPR cAMP EC50 ratio value for entry Y[Aib]EGT[αMeF]TSDYSIXLDKK([AEEA-AEEA-γGlu-C20 diacid])AQ[Aib]EFIEYLIEGGPSSG-NH2 (not fully specified (residue 13); printed as Y-Aib-EGT-αMeF-TSDYSI-αMeF-LDKK((2-[2-(2-Amino-ethoxy)-ethoxy]-acetyl)2-(γ-Glu)-CO-(CH2)18-CO2H)AQ-Aib-EFIEYLIEGGPSSG-NH2) [Example 123]
4.04

Cited source: patent US20220048967A1
